Attribute: DC50
Target: G2019S LRRK2 (Homo sapiens, UniProt Q5S007, G2019S)
Construct: expressed in transfected cells; host or cells: HEK293 (ATCC CRL-1573), transient transfection, ubiquitin promoter
Sequence (Q5S007 whole entry G2019S): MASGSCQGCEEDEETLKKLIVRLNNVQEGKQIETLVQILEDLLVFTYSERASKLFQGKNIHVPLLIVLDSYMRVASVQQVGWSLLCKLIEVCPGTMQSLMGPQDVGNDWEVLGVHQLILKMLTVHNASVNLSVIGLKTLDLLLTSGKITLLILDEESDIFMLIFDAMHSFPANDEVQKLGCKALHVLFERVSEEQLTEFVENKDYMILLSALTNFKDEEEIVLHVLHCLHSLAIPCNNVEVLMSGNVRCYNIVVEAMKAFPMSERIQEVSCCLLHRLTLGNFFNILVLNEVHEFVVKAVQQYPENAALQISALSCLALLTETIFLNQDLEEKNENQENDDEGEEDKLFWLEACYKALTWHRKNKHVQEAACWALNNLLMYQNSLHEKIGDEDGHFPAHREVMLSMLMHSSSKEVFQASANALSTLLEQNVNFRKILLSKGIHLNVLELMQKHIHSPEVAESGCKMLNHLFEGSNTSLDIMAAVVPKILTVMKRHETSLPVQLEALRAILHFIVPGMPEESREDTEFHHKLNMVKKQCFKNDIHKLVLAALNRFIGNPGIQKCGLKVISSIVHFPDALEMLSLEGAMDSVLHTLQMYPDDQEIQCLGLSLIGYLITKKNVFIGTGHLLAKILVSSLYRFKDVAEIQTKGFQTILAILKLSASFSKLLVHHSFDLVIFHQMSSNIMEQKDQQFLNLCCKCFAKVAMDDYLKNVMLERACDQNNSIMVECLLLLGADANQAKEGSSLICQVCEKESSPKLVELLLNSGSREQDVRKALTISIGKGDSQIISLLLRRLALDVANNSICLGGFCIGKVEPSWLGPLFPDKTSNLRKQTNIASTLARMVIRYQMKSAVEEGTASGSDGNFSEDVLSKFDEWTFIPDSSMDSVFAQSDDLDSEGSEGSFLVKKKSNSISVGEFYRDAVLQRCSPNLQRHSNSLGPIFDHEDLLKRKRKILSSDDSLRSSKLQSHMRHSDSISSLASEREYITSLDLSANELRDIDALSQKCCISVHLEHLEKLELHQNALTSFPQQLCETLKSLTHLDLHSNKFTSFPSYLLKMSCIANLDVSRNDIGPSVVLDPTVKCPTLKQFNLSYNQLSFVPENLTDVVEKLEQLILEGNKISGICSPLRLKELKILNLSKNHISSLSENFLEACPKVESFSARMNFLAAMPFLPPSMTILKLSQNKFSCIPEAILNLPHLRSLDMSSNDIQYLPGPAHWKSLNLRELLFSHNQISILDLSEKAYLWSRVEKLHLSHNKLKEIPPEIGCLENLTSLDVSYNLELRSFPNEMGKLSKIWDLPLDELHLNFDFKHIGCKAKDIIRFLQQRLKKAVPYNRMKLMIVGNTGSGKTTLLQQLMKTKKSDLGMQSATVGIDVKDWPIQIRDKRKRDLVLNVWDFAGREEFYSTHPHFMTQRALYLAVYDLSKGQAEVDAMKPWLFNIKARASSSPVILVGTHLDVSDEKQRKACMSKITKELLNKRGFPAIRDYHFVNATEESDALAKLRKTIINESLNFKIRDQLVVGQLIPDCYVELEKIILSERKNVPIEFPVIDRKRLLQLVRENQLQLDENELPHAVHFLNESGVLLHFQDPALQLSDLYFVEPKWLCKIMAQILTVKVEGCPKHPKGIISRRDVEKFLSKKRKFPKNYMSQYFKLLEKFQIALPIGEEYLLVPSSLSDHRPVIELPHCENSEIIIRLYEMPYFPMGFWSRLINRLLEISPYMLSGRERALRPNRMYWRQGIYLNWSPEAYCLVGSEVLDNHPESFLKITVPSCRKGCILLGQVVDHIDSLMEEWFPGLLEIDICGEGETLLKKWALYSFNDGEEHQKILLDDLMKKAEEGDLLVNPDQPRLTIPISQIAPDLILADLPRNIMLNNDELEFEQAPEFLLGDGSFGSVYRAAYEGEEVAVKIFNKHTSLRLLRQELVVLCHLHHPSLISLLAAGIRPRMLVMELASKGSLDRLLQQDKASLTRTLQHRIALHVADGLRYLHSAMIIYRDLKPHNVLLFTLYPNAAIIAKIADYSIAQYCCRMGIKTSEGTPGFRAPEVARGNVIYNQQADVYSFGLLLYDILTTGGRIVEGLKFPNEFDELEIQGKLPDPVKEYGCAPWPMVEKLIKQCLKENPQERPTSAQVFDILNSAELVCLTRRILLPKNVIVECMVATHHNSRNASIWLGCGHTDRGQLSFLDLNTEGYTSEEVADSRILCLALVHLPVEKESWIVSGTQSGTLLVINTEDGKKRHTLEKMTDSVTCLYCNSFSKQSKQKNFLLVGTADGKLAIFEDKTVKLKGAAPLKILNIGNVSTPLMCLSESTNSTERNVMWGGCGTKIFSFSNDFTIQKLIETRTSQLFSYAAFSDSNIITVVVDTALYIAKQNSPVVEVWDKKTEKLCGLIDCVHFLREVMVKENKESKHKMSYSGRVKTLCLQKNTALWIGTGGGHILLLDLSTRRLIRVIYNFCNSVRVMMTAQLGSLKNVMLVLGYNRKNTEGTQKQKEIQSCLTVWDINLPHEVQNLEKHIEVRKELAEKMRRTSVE
Protocol summary: LRRK2 degradation assay, G2019S LRRK2-HiBit expressed from plasmid in HEK293 cells
Format: cell-based
Stated conditions: HEK293 cells transfected with HiBit-tagged G2019S LRRK2, 24 hours compound incubation

Example molecules with recorded DC50:
CC(C)Oc1ccc2[nH]nc(-c3ccnc(N4CCN(CCOCCOCCOCCOc5ccc6c(c5)C(=O)N(C5CCC(=O)NC5=O)C6=O)[C@@H](C)C4)c3)c2c1 (some centres unmarked) ... 10 to 50 nM
C[C@@H]1CN(c2cc(-c3n[nH]c4ccc(OC5(C)CC5)cc34)ncn2)C[C@H](C)N1CCOCCOCCOc1ccc2c(c1)C(=O)N(C1CCC(=O)NC1=O)C2=O (some centres unmarked) ... < 10 nM
CC(C)Oc1ccc2[nH]nc(-c3cc(N4CCN(CCCCN5CCN(c6ccc7c(c6)C(=O)N(C6CCC(=O)NC6=O)C7=O)CC5)[C@@H](C)C4)ncn3)c2c1 (some centres unmarked) ... < 10 nM
CC(C)Oc1ccc2[nH]nc(-c3cc(N4C[C@@H](C)N(CCOCCOCCOCCOc5ccc6c(c5)C(=O)N(C5CCC(=O)NC5=O)C6=O)[C@@H](C)C4)ncn3)c2c1 (some centres unmarked) ... 10 to 50 nM
CC(C)Oc1ccc2[nH]nc(-c3cc(N4CCN(CCCN(C)CCCN5CCN(c6ccc7c(c6)C(=O)N(C6CCC(=O)NC6=O)C7=O)CC5)[C@@H](C)C4)ncn3)c2c1 (some centres unmarked) ... ≥ 100 nM
C[C@H]1CN(c2cc(-c3[nH]nc4ccc(OC5(C)CC5)cc34)ncn2)CCN1CCOc1ccc2c(c1)C(=O)N(C1CCC(=O)NC1=O)C2=O (some centres unmarked) ... < 10 nM
CC(C)Oc1ccc2[nH]nc(-c3cc(N4CCN(CCN5CCN(CC6CCN(c7ccc8c(c7)C(=O)N(C7CCC(=O)NC7=O)C8=O)CC6)CC5)CC4)ncn3)c2c1 (centres unmarked) ... 10 to 50 nM
C[C@@H]1CN(c2cc(-c3n[nH]c4ccc(OC5(C)CC5)cc34)ncn2)C[C@H](C)N1CCOCCN1CCN(c2ccc3c(c2)C(=O)N(C2CCC(=O)NC2=O)C3=O)CC1 (some centres unmarked) ... < 10 nM

Task: # DC50 lookup, item CC(C)Oc1cc2c(-c3ccnc(N4CCN(CCOCCOCCOCCOc5ccc6c(c5)C(=O)N(C5CCC(=O)NC5=O)C6=O)[C@@H](C)C4)c3)n[nH]c2cc1F (some centres unmarked)
Output: ≥ 100 nM

Task: Item: C[C@H]1CN(c2cc(-c3n[nH]c4ccc(OC5(C)CC5)cc34)ncn2)CCN1CCOCCOCCOCCOCCOc1ccc2c(c1)C(=O)N(C1CCC(=O)NC1=O)C2=O (some centres unmarked)
Output: 10 to 50 nM
